B1: Apobec3G-GFP MAPPIT bait (pCEL-Apobec3G-GFP) [human] / Apobec3G MAPPIT prey (pMG2-Apobec3G) [human] (parent)
chain 1: MKPHFRNTVERMYRDTFSYNFYNRPILSRRNTVWLCYEVKTKGPSRPPLDAKIFRGQVYSELKYHPEMRFFHWFSKWRKLHRDQEYEVTWYISWSPCTKCTRDMATFLAEDPKVTLTIFVARLYYFWDPDYQEALRSLCQKRDGPRATMKIMNYDEFQHCWSKFVYSQRELFEPWNNLPKYYILLHIMLGEILRHSMDPPTFTFNFNNEPWVRGRHETYLCYEVERMHNDTWVLLNQRRGFLCNQAPHKHGFLEGRHAELCFLDVIPFWKLDLDQDYRVTCFTSWSPCFSCAQEMAKFISKNKHVSLCIFTARIYDDQGRCQEGLRTLAEAGAKISIMTYSEFKHCWDTFVDHQGCPFQPWDGLDEHSQDLSGRLRAILQNQEN
chain 2: B1 chain 1

# Variants of: B1
# Assay Comment: MAPPIT
# Condition Label: with Apobec3G MAPPIT prey (pMG2-Apobec3G) [human]
Result Type: percent of parent

Recorded results for 3 variants are shown here.
chain 1 K270E    54 % of WT
chain 1 R78W    18 % of WT
chain 1 W175R    28 % of WT

Field request: percent of parent | item: chain 1 W94R
14 % of WT

Field request: percent of parent | item: chain 1 R30L
10 % of WT

Field request: percent of parent | item: chain 1 D128G
47 % of WT

Measured values drawn from paper PMC3438196 for this set.
